- subject.of.test: human AspH (His6-AspH315–758) (Homo sapiens)
- Construct: N-Terminally His6-tagged human AspH315–758 (His6-AspH315–758) was produced in Escherichia coli BL21 (DE3) cells; made in house; host or cells: Escherichia coli BL21 (DE3), pET-28a(+) vector
- assay.name: SPE-MS AspH inhibition assay (hFX-CP101-119 substrate hydroxylation)
- Type: biochemical
- details: AspH-inhibitor screening, Plate 1-duplicate
readout.type: Plate 1-duplicate (% inhibition) (%)

compound	Plate 1-duplicate (% inhibition) (%)
C[C@]12CC[C@H](O)CC1=CC[C@@H]1[C@@H]2CC[C@]2(C)C(c3cccnc3)=CC[C@@H]12 [Abiraterone]	1.40

P = O=C(CCCCCCC(=O)Nc1ccccc1)NO [Vorinostat]
Q = CO[C@H]1C(=O)[C@]2(C)[C@@H](OC)C[C@H]3OC[C@@]3(OC(C)=O)[C@H]2[C@H](OC(=O)c2ccccc2)[C@]2(O)C[C@H](OC(=O)[C@H](O)[C@@H](NC(=O)OC(C)(C)C)c3ccccc3)C(C)=C1C2(C)C [Cabazitaxel]
R = CN(c1ccccc1CNc1nc(Nc2ccc3c(c2)CC(=O)N3)ncc1C(F)(F)F)S(C)(=O)=O [PF 431396]
Given 3 compounds, produce a descending ranking by Plate 1-duplicate (% inhibition). Please, when replying, give the labels in the order that was requested.
P, R, Q
(P: 7.67%, R: -4.64%, Q: -20.49%)

====

- subject.of.test: human AspH (His6-AspH315–758) (Homo sapiens, UniProt Q12797)
- Construct: N-Terminally His6-tagged human AspH315–758 (His6-AspH315–758) was produced in Escherichia coli BL21 (DE3) cells; made in house; host or cells: Escherichia coli BL21 (DE3), pET-28a(+) vector
- Sequence (Q12797 315-758): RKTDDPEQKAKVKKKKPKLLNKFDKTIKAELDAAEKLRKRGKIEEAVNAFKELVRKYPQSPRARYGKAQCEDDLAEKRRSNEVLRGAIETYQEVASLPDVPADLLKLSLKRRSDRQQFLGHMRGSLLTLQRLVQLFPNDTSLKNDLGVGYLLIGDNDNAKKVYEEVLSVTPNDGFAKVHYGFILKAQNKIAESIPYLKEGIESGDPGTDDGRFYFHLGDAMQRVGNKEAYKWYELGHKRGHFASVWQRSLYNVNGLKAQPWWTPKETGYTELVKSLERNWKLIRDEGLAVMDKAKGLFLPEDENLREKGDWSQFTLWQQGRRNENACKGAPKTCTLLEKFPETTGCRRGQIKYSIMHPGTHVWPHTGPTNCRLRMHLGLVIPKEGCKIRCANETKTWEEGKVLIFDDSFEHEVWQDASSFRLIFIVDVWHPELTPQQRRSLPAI
- assay.name: SPE-MS AspH inhibition assay (hFX-CP101-119 substrate hydroxylation)
- Assay type: biochemical
- details: 50 nM His6-AspH315–758, 1 μM hFX-CP101–119, 100 μM LAA, 3 μM 2OG, 2 μM FAS, 50 mM HEPES pH 7.5, 20 °C; read-out: IC50
pIC50: −log10 of the molar value.
readout.type: pIC50

// solved cases for pIC50 follow
compound	endpoint.value
CN(C)CC[C@H](CSc1ccccc1)Nc1ccc(S(=O)(=O)NC(=O)c2ccc(N3CCN(Cc4ccccc4-c4ccc(Cl)cc4)CC3)cc2)cc1[N+](=O)[O-] [ABT-737, reference compound]	5.47
CCCS(=O)(=O)Nc1ccc(F)c(C(=O)c2c[nH]c3ncc(-c4ccc(Cl)cc4)cc23)c1F [Vemurafenib, reference compound]	4.89

I = O=C(/C=C/c1cccc(S(=O)(=O)Nc2ccccc2)c1)NO [Belinostat, reference compound]
II = COc1c/c(=C2\C=c3ccccc3=N2)[nH]/c1=C\c1[nH]c(C)cc1C.CS(=O)(=O)O [Obatoclax, reference compound]
III = CC1(C)CCC(CN2CCN(c3ccc(C(=O)NS(=O)(=O)c4ccc(NCC5CCOCC5)c([N+](=O)[O-])c4)c(Oc4cnc5[nH]ccc5c4)c3)CC2)=C(c2ccc(Cl)cc2)C1 [Venetoclax, reference compound]
IV = O=C(CCCCCCC(=O)Nc1ccc([C@H]2O[C@@H](CSc3nc(-c4ccccc4)c(-c4ccccc4)o3)C[C@@H](c3ccc(CO)cc3)O2)cc1)NO [Tubacin, reference compound]
Give the ascending ranking of the items by reported pIC50. Please, when replying, give the labels in the order that was requested.
II, I, IV, III
(II: 4.88, I: 5.13, IV: 5.39, III: 5.85)

Cited source: paper PMC7588595
